molecular target: AAC(6′)-Ib (Klebsiella pneumoniae); test: AAC; assay type: biochemical; details: 100 μM compound, 18 μM kanamycin A, 50 μM acetyl CoA, 10% DMSO
Sequence (P19650 whole entry): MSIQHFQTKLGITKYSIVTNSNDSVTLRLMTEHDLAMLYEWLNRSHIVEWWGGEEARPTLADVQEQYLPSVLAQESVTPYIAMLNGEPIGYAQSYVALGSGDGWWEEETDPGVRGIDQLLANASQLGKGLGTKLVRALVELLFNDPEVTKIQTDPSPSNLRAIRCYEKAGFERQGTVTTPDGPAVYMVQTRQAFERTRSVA
outcome-measure: inhibition of the acetylation of kanamycin A

cpd-smiles: O=C1C(=Cc2ccco2)C(=O)N(c2ccccc2)C(=S)N1c1ccccc1
target-system: AAC(6′)-Ib (Klebsiella pneumoniae)
data-value: lack of activity

cpd-smiles: O=C1C(=Cc2ccco2)C(=O)N(c2ccccc2)C(=O)N1c1ccccc1
target-system: AAC(6′)-Ib (Klebsiella pneumoniae)
data-value: lack of activity
